Test system: ECM6009 aac(3)-II
Test: microbe, parasite or virus in culture
Assay type: cell-based, Escherichia coli
Details: Escherichia coli, read-out: Compound MIC on Bacterial Strains: ECM6009 aac(3)-II
Known MIC of a selection of compounds

// known answers, use as guide
| Compound | MIC |
| --- | --- |
| NCC[C@H](O)C(=O)N[C@@H]1C[C@H](N)[C@@H](O[C@H]2O[C@H](CN)[C@@H](O)[C@H](O)[C@H]2O)[C@H](O)[C@H]1O[C@H]1O[C@H](CO)[C@@H](O)[C@H](N)[C@H]1O [Amikacin, reference compound] | < 1 µg/mL |
| NC[C@H]1O[C@H](O[C@H]2[C@H](O)[C@@H](O[C@H]3O[C@H](CO)[C@@H](O)[C@H](N)[C@H]3O)[C@H](N)C[C@@H]2N)[C@H](N)C[C@@H]1O [Tobramycin, reference compound] | > 8 µg/mL |
| CN[C@@H]1[C@@H](O)[C@@H](O[C@@H]2[C@@H](O)[C@H](O[C@H]3O[C@H](CNC[C@H](O)CO)CC[C@H]3N)[C@@H](N)C[C@H]2NC(=O)[C@@H](O)CN)OC[C@]1(C)O [Compound 45] | < 1 µg/mL |
| CN[C@@H]1[C@@H](O)[C@@H](O[C@@H]2[C@@H](O)[C@H](O[C@H]3O[C@H](CNCCO)CC[C@H]3N)[C@@H](N)C[C@H]2NC(=O)[C@@H](O)CCCN)OC[C@]1(C)O [Compound 40] | < 1 µg/mL |

Hi! What's the reported MIC for CN[C@@H]1C(O)[C@@H](OC2C(O)C(O[C@H]3O[C@H](CNC[C@@H](O)CO)CCC3N)[C@@H](N)C[C@H]2NC(=O)[C@@H](O)CN)OCC1(C)O (some centres unmarked) [Compound 44] on ECM6009 aac(3)-II? < 1 µg/mL

====

Listing of entries alongside the reported MIC.
Tested on: Escherichia coli (ATCC 25922)
Assay: MIC, broth microdilution
Settings: Escherichia coli, ATCC25922, read-out: Compound MIC on Bacterial Strains: ECM6000 ATCC 25922

| Compound | Assayed Target | Endpoint Value |
| --- | --- | --- |
| CN[C@@H]1[C@@H](O)[C@@H](O[C@@H]2[C@@H](O)[C@H](O[C@H]3O[C@H](CNCCO)CC[C@H]3N)[C@@H](N)C[C@H]2NC(=O)[C@@H](O)CCCN)OC[C@]1(C)O [Compound 40] | Escherichia coli (ATCC 25922) | 1 to 8 µg/mL |
| CN[C@@H]1C(O)[C@@H](OC2C(O)C(O[C@H]3O[C@H](CNC[C@@H](O)CO)CCC3N)[C@@H](N)C[C@H]2NC(=O)[C@@H](O)CN)OCC1(C)O (stereo partly drawn) [Compound 44] | Escherichia coli (ATCC 25922) | < 1 µg/mL |

Consider the compound shown here: NCC[C@H](O)C(=O)N[C@@H]1C[C@H](N)[C@@H](O[C@H]2O[C@H](CN)[C@@H](O)[C@H](O)[C@H]2O)[C@H](O)[C@H]1O[C@H]1O[C@H](CO)[C@@H](O)[C@H](N)[C@H]1O [Amikacin, reference compound] What is its recorded MIC? 1 to 8 µg/mL
